testSystem: Human immunodeficiency virus type 1 reverse transcriptase (Human immunodeficiency virus 1) (UniProt Q72547)
protocolSummary: Compound ability to inhibit the production of HIV reverse transcriptase (RT) in culture supernatant of monocytic U937 on at 7 days at a concentration 5 uM
Type: functional
Entries and their Activity (c.p.m. 50ul-1)
Response field accepts a number only; no unit should be typed.

// known answers, use as guide
Cc1cn([C@H]2C[C@H](N=[N+]=[N-])[C@@H](COP(=O)(O)OC[C@H]3OC(O)[C@@H](O)[C@@H](O)[C@@H]3O)O2)c(=O)[nH]c1=O (some centres undefined)    133000
Cc1cn([C@H]2C[C@H](N=[N+]=[N-])[C@@H](COP(=O)(O)OCCO[C@H]3O[C@H](CO)[C@@H](O)[C@H](O)[C@@H]3O)O2)c(=O)[nH]c1=O    200000
Cc1cn([C@H]2C[C@H](N=[N+]=[N-])[C@@H](COP(=O)(O)OC[C@H]3OC(O)[C@H](O)[C@@H](O)[C@@H]3O)O2)c(=O)[nH]c1=O (some centres undefined)    142000

Now consider a different compound.
Lookup: Could you please provide reported Activity (c.p.m. 50ul-1) for Cc1cn([C@H]2C[C@H](N=[N+]=[N-])[C@@H](CO)O2)c(=O)[nH]c1=O [ZIDOVUDINE] ? Thanks!
Found: 35000

====

testSystem: Human immunodeficiency virus type 1 reverse transcriptase (Human immunodeficiency virus 1) (UniProt Q72547)
protocolSummary: Percent inhibition measured as the production of HIV reverse transcriptase (RT) in culture supernatant of monocytic U937 on at 7 days at a concentration 0.2 uM
Format: functional
reportedProperty: inhibition (%)
// note: answer is a bare numeric in %

CCCCCCCCCCCCCCCCOP(=O)(OC[C@H]1OC(O)[C@H](O)[C@@H](O)[C@@H]1O)OC[C@H]1OC(n2cc(C)c(=O)[nH]c2=O)C[C@@H]1N=[N+]=[N-] (some centres undefined)    0
CCCCCCCCCCCCCCCCOP(=O)(OCCO[C@H]1O[C@H](CO)[C@@H](O)[C@H](O)[C@@H]1O)OCC1OC(n2cc(C)c(=O)[nH]c2=O)CC1N=[N+]=[N-] (some centres undefined)    0
CCCCCCCCCCCCCCCCOP(=O)(OC[C@H]1OC(O)[C@@H](O)[C@@H](O)[C@@H]1O)OC[C@H]1OC(n2cc(C)c(=O)[nH]c2=O)C[C@@H]1N=[N+]=[N-] (some centres undefined)    0

Let's switch to this compound now.
Lookup: Read the entry Cc1cn([C@H]2C[C@H](N=[N+]=[N-])[C@@H](CO)O2)c(=O)[nH]c1=O and write its reported inhibition.
Found: 91

====

testSystem: Human immunodeficiency virus type 1 reverse transcriptase (Human immunodeficiency virus 1) (UniProt Q72547)
protocolSummary: Percent inhibition measured as the production of HIV reverse transcriptase (RT) in culture supernatant of monocytic U937 on at 14 days at a concentration 1 uM
Type: functional
reportedProperty: inhibition (%)
Dear colleague, please return just the value in %, with no unit written.

Illustrative cases are given below, each with its answer.
Cc1cn([C@H]2C[C@H](N=[N+]=[N-])[C@@H](COP(=O)(O)OC[C@H]3OC(O)[C@H](O)[C@@H](O)[C@@H]3O)O2)c(=O)[nH]c1=O (stereo partly drawn)    9
CCCCCCCCCCCCCCCCOP(=O)(OC[C@H]1OC(O)[C@H](O)[C@@H](O)[C@@H]1O)OC[C@H]1OC(n2cc(C)c(=O)[nH]c2=O)C[C@@H]1N=[N+]=[N-] (stereo partly drawn)    79

Lookup: Give the reported inhibition for this molecule. Cc1cn([C@H]2C[C@H](N=[N+]=[N-])[C@@H](CO)O2)c(=O)[nH]c1=O
Found: 0

====

testSystem: Human immunodeficiency virus type 1 reverse transcriptase (Human immunodeficiency virus 1) (UniProt Q72547)
protocolSummary: Percent inhibition measured as the production of HIV reverse transcriptase (RT) in culture supernatant of monocytic U937 on at 11 days at a concentration 5 uM
Format: functional
reportedProperty: inhibition
Reply with the number, then its unit.

Cc1cn([C@H]2C[C@H](N=[N+]=[N-])[C@@H](COP(=O)(O)OC[C@H]3OC(O)[C@@H](O)[C@@H](O)[C@@H]3O)O2)c(=O)[nH]c1=O (some centres undefined)    0%
Cc1cn([C@H]2C[C@H](N=[N+]=[N-])[C@@H](COP(=O)(O)OCCO[C@H]3O[C@H](CO)[C@@H](O)[C@H](O)[C@@H]3O)O2)c(=O)[nH]c1=O    0%
Cc1cn([C@H]2C[C@H](N=[N+]=[N-])[C@@H](CO)O2)c(=O)[nH]c1=O    18%

Now for a further compound.
Lookup: Provide measured inhibition value, entry: Cc1cn([C@H]2C[C@H](N=[N+]=[N-])[C@@H](COP(=O)(O)OC[C@H]3OC(O)[C@H](O)[C@@H](O)[C@@H]3O)O2)c(=O)[nH]c1=O (some centres undefined)
Found: 0%

====

testSystem: Human immunodeficiency virus type 1 reverse transcriptase (Human immunodeficiency virus 1)
protocolSummary: Compound ability to inhibit the production of HIV reverse transcriptase (RT) in culture supernatant of CEM-CL13 on at 22 days at a concentration 1 uM
Assay type: functional
reportedProperty: Activity (c.p.m. 50ul-1)
Reply: number alone, nothing else.

CCCCCCCCCCCCCCCCOP(=O)(OC[C@H]1OC(O)[C@@H](O)[C@@H](O)[C@@H]1O)OC[C@H]1OC(n2cc(C)c(=O)[nH]c2=O)C[C@@H]1N=[N+]=[N-] (some centres undefined)    3900

Lookup: Check the records and state Activity (c.p.m. 50ul-1) for CCCCCCCCCCCCCCCCOP(=O)(OC[C@H]1OC(O)[C@H](O)[C@@H](O)[C@@H]1O)OC[C@H]1OC(n2cc(C)c(=O)[nH]c2=O)C[C@@H]1N=[N+]=[N-] (some centres undefined)
Found: 33000

Lookup: Supply recorded Activity (c.p.m. 50ul-1) for CCCCCCCCCCCCCCCCOP(=O)(OCCO[C@H]1O[C@H](CO)[C@@H](O)[C@H](O)[C@@H]1O)OCC1OC(n2cc(C)c(=O)[nH]c2=O)CC1N=[N+]=[N-] (some centres undefined) here.
Found: 48000

Lookup: Dear colleague, please send me the reported Activity (c.p.m. 50ul-1) for Cc1cn([C@H]2C[C@H](N=[N+]=[N-])[C@@H](CO)O2)c(=O)[nH]c1=O when you can.
Found: 1700

====

testSystem: UniProt Q72547
protocolSummary: Compound ability to inhibit the production of HIV reverse transcriptase (RT) in culture supernatant of monocytic U937 on at 14 days at a concentration 0.2 uM
Type: functional
Listed next: entries and their corresponding Activity (c.p.m. 50ul-1).
API note: the answer field is a bare number with no unit suffix.

CCCCCCCCCCCCCCCCOP(=O)(OC[C@H]1OC(O)[C@@H](O)[C@@H](O)[C@@H]1O)OC[C@H]1OC(n2cc(C)c(=O)[nH]c2=O)C[C@@H]1N=[N+]=[N-] (some centres undefined)    27000
CCCCCCCCCCCCCCCCOP(=O)(OCCO[C@H]1O[C@H](CO)[C@@H](O)[C@H](O)[C@@H]1O)OCC1OC(n2cc(C)c(=O)[nH]c2=O)CC1N=[N+]=[N-] (some centres undefined)    30000
Cc1cn([C@H]2C[C@H](N=[N+]=[N-])[C@@H](CO)O2)c(=O)[nH]c1=O    60000

Lookup: Supply Activity (c.p.m. 50ul-1) value. Item: CCCCCCCCCCCCCCCCOP(=O)(OC[C@H]1OC(O)[C@H](O)[C@@H](O)[C@@H]1O)OC[C@H]1OC(n2cc(C)c(=O)[nH]c2=O)C[C@@H]1N=[N+]=[N-] (some centres undefined)
Found: 16000

====

Tested on: CCRF-CEM
protocolSummary: Concentration required to reduce the viability of uninfected cells (CEM-CL13) by 50% on day 22.
Assay type: functional
conditions: Homo sapiens, 528 h, read-out: CD50 (the source's name)
Each entry below carries its reported CC50.
Write the value in µM as a bare number.

CCCCCCCCCCCCCCCCOP(=O)(OC[C@H]1OC(O)[C@@H](O)[C@@H](O)[C@@H]1O)OC[C@H]1OC(n2cc(C)c(=O)[nH]c2=O)C[C@@H]1N=[N+]=[N-] (some centres not stated)    2.5

Lookup: Read off the recorded CC50 for CCCCCCCCCCCCCCCCOP(=O)(OCCO[C@H]1O[C@H](CO)[C@@H](O)[C@H](O)[C@@H]1O)OCC1OC(n2cc(C)c(=O)[nH]c2=O)CC1N=[N+]=[N-] (some centres not stated)
Found: 3.4

Lookup: State its CC50: CCCCCCCCCCCCCCCCOP(=O)(OC[C@H]1OC(O)[C@H](O)[C@@H](O)[C@@H]1O)OC[C@H]1OC(n2cc(C)c(=O)[nH]c2=O)C[C@@H]1N=[N+]=[N-] (some centres not stated)
Found: 3.2

Lookup: Give the value of CC50 reported for the following: Cc1cn([C@H]2C[C@H](N=[N+]=[N-])[C@@H](COP(=O)(O)OCCO[C@H]3O[C@H](CO)[C@@H](O)[C@H](O)[C@@H]3O)O2)c(=O)[nH]c1=O
Found: 28
